Cited source: patent US20040248234A1

Measured Response observed using GSH-EE as trapping agent (human liver microsomal (HL-mix-13))

Worked examples follow.
Incoming: Find the measured Response observed using GSH-EE as trapping agent: item CCN(CC)Cc1cc(Nc2ccnc3cc(Cl)ccc23)ccc1O [Amodiaquine] , target or system human liver microsomal (HL-mix-13).
Outgoing: Yes

Incoming: Find the measured Response observed using GSH-EE as trapping agent: item NC(=O)N1c2ccccc2C=Cc2ccccc21 [Carbamazepine] , target or system human liver microsomal (HL-mix-13).
Outgoing: Yes

Incoming: Find the measured Response observed using GSH-EE as trapping agent: item COc1ccc2c(c1)c(CC(=O)O)c(C)n2C(=O)c1ccc(Cl)cc1 [Indomethacin] , target or system human liver microsomal (HL-mix-13).
Outgoing: No

Incoming: Find the measured Response observed using GSH-EE as trapping agent: item CN(CCOc1ccc(CC2SC(=O)NC2=O)cc1)c1ccccn1 (centres unmarked) [Rosiglitazone] , target or system human liver microsomal (HL-mix-13).
Outgoing: Yes

---
Incoming: Find the measured Response observed using GSH-EE as trapping agent: item O=C(O)Cc1ccccc1Nc1c(Cl)cccc1Cl [Diclofenac] , target or system human liver microsomal (HL-mix-13).
Outgoing: Yes
